molecular target: T1, human Sdc2 (human, UniProt P34741 19-144, limits assumed); test: Octet tandem binning; saturating Ab f6 19844-R3-P3-E09
T1 construct: Antigen of the Octet tandem binning, loaded on biosensors at 100 nM; also called huSdc2; hSdc2
T1 sequence (P34741 19-144 limits assumed): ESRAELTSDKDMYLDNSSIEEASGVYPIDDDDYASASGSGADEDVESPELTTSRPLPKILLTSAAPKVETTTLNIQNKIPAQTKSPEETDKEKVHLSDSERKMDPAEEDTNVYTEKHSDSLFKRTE
Let's look at some binders and their measured raw competing-Ab binding signal.

{"columns": ["BINDER", "raw competing-Ab binding signal"],
 "data": [
  ["19838-6-N03-A (antibody, IgG1, V domains shown) VH: EVQLVESGGGLVKPGGSLKLSCEASGITFSNYVMSWVRQTPEKRLEWVATISDGGSYTYYPDNVKGRFTISRDNAKNNLYLQMSHLKSEDTAMYYCVRDRYDYDGRVYAMDYWGQGTSVTVSS VL: DVVMTQTPLSLPVSLGDQASISCRSSQSLVHSNGDTYLHWYLQKPGQSPKLLIYKVSNRFSGVPDRFSGSGSGTDFTLKITRVEAEDLGVYFCSQSTHVPWTFGGGTKLEIKR", 0.31]
]}

// switching to the query binder
Prompt: Which raw competing-Ab binding signal is reported for this binder? 6-N03-A (antibody, mouse IgG1, kappa, V domains shown) VH: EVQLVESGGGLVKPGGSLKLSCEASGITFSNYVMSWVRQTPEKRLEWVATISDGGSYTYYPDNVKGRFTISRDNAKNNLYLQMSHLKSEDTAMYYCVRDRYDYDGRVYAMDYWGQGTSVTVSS VL: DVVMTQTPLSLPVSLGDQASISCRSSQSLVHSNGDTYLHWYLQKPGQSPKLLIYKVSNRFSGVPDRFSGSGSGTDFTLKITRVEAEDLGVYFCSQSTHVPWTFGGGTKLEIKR
Completion: 0.346
